tested on: human HL60 cells; assay: SWATH-MS proteomics, differential protein representation, akirin2 KO vs WT HL60 cells; format: cell-based; settings: Over-represented in KO; KO vs WT HL60 cells
Reported metric: Log (Fold Change)
Write no unit; give the number alone.

Q. Can you share its Log (Fold Change)? I mean this molecule: sp¦Q8WW12¦PCNP_HUMAN (protein, UniProt Q8WW12 2-178, looked up) PEST proteolytic …: ADGKAGDEKPEKSQRAGAAGGPEEEAEKPVKTKTVSSSNGGESSSRSAEKRSAEEEAADLPTKPTKISKFGFAIGSQTTKKASAISIKLGSSKPKETVPTLAPKTLSVAAAFNEDEDSEPEEMPPEAKMRMKNIGRDTPTSAGPNSFNKGKHGFSDNQKLWERNIKSHLGNVHDQDN
A. 0.1375
